Molecular target: T1, full-length human IL-36R on cells (human, UniProt Q9HB29 20-575)
T1 sequence (looked up): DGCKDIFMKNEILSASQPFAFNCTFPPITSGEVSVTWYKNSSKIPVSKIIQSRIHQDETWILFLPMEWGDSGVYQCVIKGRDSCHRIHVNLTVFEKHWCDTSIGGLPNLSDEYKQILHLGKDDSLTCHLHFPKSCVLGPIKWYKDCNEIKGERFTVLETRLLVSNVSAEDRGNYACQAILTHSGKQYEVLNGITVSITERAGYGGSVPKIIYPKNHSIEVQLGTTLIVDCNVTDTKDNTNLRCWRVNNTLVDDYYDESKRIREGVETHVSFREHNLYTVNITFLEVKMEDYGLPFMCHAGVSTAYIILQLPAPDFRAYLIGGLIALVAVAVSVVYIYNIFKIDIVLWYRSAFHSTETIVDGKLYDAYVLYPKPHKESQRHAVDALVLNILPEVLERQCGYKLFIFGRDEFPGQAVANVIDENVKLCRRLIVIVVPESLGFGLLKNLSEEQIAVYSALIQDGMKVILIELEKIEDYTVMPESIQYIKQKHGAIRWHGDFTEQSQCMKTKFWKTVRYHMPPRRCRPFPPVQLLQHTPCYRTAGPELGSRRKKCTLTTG
Test: cell-based or functional assay
Metric: IC50 [M], NFκB-luciferase, 10 pM hIL-36γ (M)
Provide only the numeric value, understood in M.

Known IC50 [M], NFκB-luciferase, 10 pM hIL-36γ results, listed for orientation:
Binder	IC50 [M], NFκB-luciferase, 10 pM hIL-36γ (M)
H4H14728P (antibody, human IgG4 S228P, kappa, V domains shown) VH: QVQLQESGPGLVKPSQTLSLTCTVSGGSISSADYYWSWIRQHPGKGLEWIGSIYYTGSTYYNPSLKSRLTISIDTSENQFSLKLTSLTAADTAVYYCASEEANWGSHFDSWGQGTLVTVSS VL: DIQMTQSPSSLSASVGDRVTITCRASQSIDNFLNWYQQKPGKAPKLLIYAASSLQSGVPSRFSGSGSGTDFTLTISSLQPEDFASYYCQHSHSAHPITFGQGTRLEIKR	1.2e-09
H4H14706P2 (antibody, human IgG4 S228P, kappa, V domains shown) VH: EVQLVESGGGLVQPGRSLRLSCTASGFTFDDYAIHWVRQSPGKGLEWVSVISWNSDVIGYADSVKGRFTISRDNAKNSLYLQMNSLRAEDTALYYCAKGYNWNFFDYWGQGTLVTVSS VL: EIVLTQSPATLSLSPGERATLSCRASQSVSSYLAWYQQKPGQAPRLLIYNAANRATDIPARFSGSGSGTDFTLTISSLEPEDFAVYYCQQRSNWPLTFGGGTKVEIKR	1.2e-10

Param item = H4H14700P2 (antibody, human IgG4 S228P, kappa, V domains shown) VH: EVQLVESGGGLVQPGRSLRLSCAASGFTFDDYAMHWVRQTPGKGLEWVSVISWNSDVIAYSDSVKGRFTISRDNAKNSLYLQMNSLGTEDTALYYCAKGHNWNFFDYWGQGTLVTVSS VL: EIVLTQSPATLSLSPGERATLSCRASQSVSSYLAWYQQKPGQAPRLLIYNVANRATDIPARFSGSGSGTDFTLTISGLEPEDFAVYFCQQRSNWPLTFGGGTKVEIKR ; retrieve measured IC50 [M], NFκB-luciferase, 10 pM hIL-36γ.
1.2e-10

Param item = H4H14731P (antibody, human IgG4 S228P, kappa, V domains shown) VH: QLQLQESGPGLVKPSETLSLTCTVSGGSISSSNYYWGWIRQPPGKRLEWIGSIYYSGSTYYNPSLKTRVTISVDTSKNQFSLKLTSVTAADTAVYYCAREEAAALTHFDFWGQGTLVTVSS VL: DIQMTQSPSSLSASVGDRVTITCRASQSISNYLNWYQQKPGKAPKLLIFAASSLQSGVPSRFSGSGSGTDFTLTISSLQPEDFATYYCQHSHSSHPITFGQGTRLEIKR ; retrieve measured IC50 [M], NFκB-luciferase, 10 pM hIL-36γ.
7.3e-10

Param item = H4H14708P2 (antibody, human IgG4 S228P, kappa, V domains shown) VH: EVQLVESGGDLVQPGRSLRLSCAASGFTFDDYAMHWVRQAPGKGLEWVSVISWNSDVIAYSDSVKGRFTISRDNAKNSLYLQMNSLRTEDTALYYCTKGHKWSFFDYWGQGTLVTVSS VL: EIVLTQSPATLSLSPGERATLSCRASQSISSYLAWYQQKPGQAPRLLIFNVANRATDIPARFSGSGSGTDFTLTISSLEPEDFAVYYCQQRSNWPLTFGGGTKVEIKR ; retrieve measured IC50 [M], NFκB-luciferase, 10 pM hIL-36γ.
1.6e-10

Param item = H4H14758P (antibody, human IgG4 S228P, kappa, V domains shown) VH: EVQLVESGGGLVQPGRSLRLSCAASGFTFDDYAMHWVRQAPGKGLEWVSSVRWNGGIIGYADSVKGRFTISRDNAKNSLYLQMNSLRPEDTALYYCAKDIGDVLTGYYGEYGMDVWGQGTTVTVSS VL: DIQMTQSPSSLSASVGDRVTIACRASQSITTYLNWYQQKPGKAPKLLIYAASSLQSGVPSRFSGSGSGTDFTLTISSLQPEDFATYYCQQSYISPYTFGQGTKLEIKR ; retrieve measured IC50 [M], NFκB-luciferase, 10 pM hIL-36γ.
1.6e-10

Param item = H4H14699P2 (antibody, human IgG4 S228P, kappa, V domains shown, Fully human anti-IL-36R antibody) VH: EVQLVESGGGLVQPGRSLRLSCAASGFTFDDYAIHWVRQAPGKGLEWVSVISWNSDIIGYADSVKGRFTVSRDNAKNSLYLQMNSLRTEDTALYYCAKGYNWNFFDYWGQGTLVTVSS VL: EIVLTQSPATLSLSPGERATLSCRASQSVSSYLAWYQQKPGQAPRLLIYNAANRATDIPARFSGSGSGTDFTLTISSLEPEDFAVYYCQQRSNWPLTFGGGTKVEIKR ; retrieve measured IC50 [M], NFκB-luciferase, 10 pM hIL-36γ.
1.4e-10

Param item = H4H14757P (antibody, human IgG4 S228P, kappa, V domains shown) VH: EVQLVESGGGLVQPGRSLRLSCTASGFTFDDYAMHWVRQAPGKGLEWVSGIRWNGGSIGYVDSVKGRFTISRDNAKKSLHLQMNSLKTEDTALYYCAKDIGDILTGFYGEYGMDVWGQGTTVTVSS VL: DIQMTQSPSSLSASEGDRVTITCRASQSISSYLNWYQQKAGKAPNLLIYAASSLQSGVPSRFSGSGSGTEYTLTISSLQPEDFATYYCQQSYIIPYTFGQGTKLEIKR ; retrieve measured IC50 [M], NFκB-luciferase, 10 pM hIL-36γ.
1.3e-10

Param item = H4H14709P (antibody, human IgG4 S228P, kappa, V domains shown) VH: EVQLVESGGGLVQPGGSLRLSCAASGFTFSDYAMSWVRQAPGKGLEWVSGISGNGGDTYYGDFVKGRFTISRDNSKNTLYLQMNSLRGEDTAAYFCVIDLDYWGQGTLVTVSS VL: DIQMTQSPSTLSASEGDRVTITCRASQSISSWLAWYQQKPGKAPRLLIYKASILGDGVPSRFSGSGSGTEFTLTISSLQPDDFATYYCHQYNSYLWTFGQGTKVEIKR ; retrieve measured IC50 [M], NFκB-luciferase, 10 pM hIL-36γ.
1.3e-10
